From: patent US9999619B2

IC50, Jak2 (a.a. 828-1132) (Homo sapiens (Human)): measured values

The examples below pair each entry with its known result.
compound: N#CCC1(n2cc(-c3ncnc4[nH]ccc34)cn2)CN(C2CCN(C(=O)c3ccc(C#N)c(F)c3)CC2)C1 [Example 66]
IC50: 50 to 100 nM

compound: N#CCC1(n2cc(-c3ncnc4[nH]ccc34)cn2)CN(C2CCN(Cc3cc4ccccc4nc3Cl)CC2)C1 [Example 214]
IC50: 10 to 50 nM

compound: N#CCC1(n2cc(-c3ncnc4[nH]ccc34)cn2)CN([C@@H]2CCN(C(=O)c3ccnc(C(F)(F)F)n3)C[C@@H]2F)C1 (relative stereo) [Example 362]
IC50: 50 to 100 nM

compound: CS(=O)(=O)N1CCC(N2CC(CC#N)(n3cc(-c4ccnc5[nH]ccc45)cn3)C2)CC1 [Example 351]
IC50: 10 to 50 nM

compound: N#CCC1(n2cc(-c3ncnc4[nH]ccc34)cn2)CN(C2CCN(Cc3c(F)ccc(Cl)c3F)CC2)C1 [Example 228]
IC50: ≤ 10 nM

Ask | Given N#CCC1(n2cc(-c3c(C#N)cnc4[nH]ccc34)cn2)CN(C2CCN(C(=O)c3ccnc(C(F)(F)F)c3F)CC2)C1 [Example 332] , state its recorded IC50.
Reply | 50 to 100 nM

Ask | Lookup N#CCC1(n2cc(-c3ncnc4[nH]ccc34)cn2)CN(C2CC3CCC(C2)N3C(=O)c2ccc(C#N)c(F)c2)C1 (stereo not shown) [Example 140]
Reply | 10 to 50 nM

* * *

biological target: human JAK1 (a.a. 837-1142); assay: In vitro JAK kinase assay (HTRF, phosphorylation of a biotinylated peptide), JAK1; assay type: biochemical; details: ratio of JAK2 IC50 to JAK1 IC50, measured at 1 mM ATP
test_readout: IC50 Ratio JAK2/JAK1

molecular_string: N#CCC1(n2cc(-c3c(C#N)cnc4[nH]ccc34)cn2)CN(C2CCN(C(=O)c3cc(C#N)cc(C#N)c3)CC2)C1
IC50 Ratio JAK2/JAK1: 7.4

[1] N#CCC1(n2cc(-c3ncnc4[nH]ccc34)cn2)CN(C2CCN(C(=O)c3ccc(-c4ccccc4)cc3)CC2)C1
[2] N#CCC1(n2cc(-c3ccnc4[nH]ccc34)cn2)CN(C2CCN(C(=O)c3cc(C(F)(F)F)ncc3Cl)CC2)C1
[3] N#CCC1(n2cc(-c3ncnc4[nH]ccc34)cn2)CN(C2CCN(C(=O)c3c(F)cc(-c4cccnc4)cc3F)CC2)C1
Ask | Put the items in order so that reported IC50 Ratio JAK2/JAK1 rises from first to last. Answer by listing the labels in the requested order.
Reply | 1, 2, 3
(1: 1.5, 2: 2.8, 3: 10.6)

* * *

IC50, human JAK1 (a.a. 837-1142) (Homo sapiens): measured values

The examples below pair each entry with its known result.
molecular_string: N#CCC1(n2ccc(-c3ncnc4[nH]ccc34)c2)CN(C2CCN(C(=O)Nc3ccc(F)cc3F)CC2)C1
system_name: human JAK1 (a.a. 837-1142) (Homo sapiens)
IC50: ≤ 5 nM
--
molecular_string: N#CCC1(n2cc(-c3ccnc4[nH]ccc34)cn2)CN(C2CCN(C(=O)c3cnc(C(F)(F)F)cn3)CC2)C1
system_name: human JAK1 (a.a. 837-1142) (Homo sapiens)
IC50: 20 to 30 nM
--
molecular_string: N#CCC1(n2cc(-c3ncnc4[nH]ccc34)cn2)CN(C2CCN(C(=O)c3ccnc(C(F)(F)F)c3)CC2)C1
system_name: human JAK1 (a.a. 837-1142) (Homo sapiens)
IC50: > 30 nM
--
molecular_string: N#CCC1(n2cc(-c3c(F)cnc4[nH]ccc34)cn2)CN(C2CCN(C(=O)c3cncc(C(F)(F)F)n3)CC2)C1
system_name: human JAK1 (a.a. 837-1142) (Homo sapiens)
IC50: ≤ 5 nM
--
molecular_string: N#CCC1(n2ccc(-c3ncnc4[nH]ccc34)c2)CN(C2CCN(C(=O)c3ccnc(C(F)(F)F)n3)CC2)C1
system_name: human JAK1 (a.a. 837-1142) (Homo sapiens)
IC50: 5 to 20 nM
--
molecular_string: N#CCC1(n2cc(-c3ncnc4[nH]ccc34)cn2)CN(C2CCN(C(=O)c3nc(C(F)(F)F)cs3)CC2)C1
system_name: human JAK1 (a.a. 837-1142) (Homo sapiens)
IC50: ≤ 5 nM

Ask | Given COc1ncccc1NC(=O)N1CCC(N2CC(CC#N)(n3cc(-c4ccnc5[nH]ccc45)cn3)C2)CC1 , state its recorded IC50.
Reply | 5 to 20 nM

* * *

# IC50 listing for each entry below
molecular target: human JAK1 (a.a. 837-1142) (Homo sapiens)

molecular_string: N#CCC1(n2ccc(-c3ncnc4[nH]ccc34)c2)CN(C2CCN(C(=O)Nc3ncccc3C(F)(F)F)CC2)C1
system_name: human JAK1 (a.a. 837-1142) (Homo sapiens)
IC50: 20 to 30 nM
//
molecular_string: N#CCC1(n2cc(-c3ncnc4[nH]ccc34)cn2)CN(C2CCN(C(=O)Nc3ccccc3OC(F)(F)F)CC2)C1
system_name: human JAK1 (a.a. 837-1142) (Homo sapiens)
IC50: ≤ 5 nM
//
molecular_string: N#CCC1(n2ccc(-c3ncnc4[nH]ccc34)c2)CN(C2CCN(C(=O)c3ccc(O)c(C(F)(F)F)c3)CC2)C1
system_name: human JAK1 (a.a. 837-1142) (Homo sapiens)
IC50: 5 to 20 nM
//
molecular_string: N#CCC1(n2cc(-c3ncnc4[nH]ccc34)cn2)CN(C2CCN(C(=O)c3ccsc3Br)CC2)C1
system_name: human JAK1 (a.a. 837-1142) (Homo sapiens)
IC50: ≤ 5 nM
//
molecular_string: Cc1cc(NC(=O)N2CCC(N3CC(CC#N)(n4cc(-c5ncnc6[nH]ccc56)cn4)C3)CC2)n(C)n1
system_name: human JAK1 (a.a. 837-1142) (Homo sapiens)
IC50: 5 to 20 nM

Ask | Recall the recorded IC50 for N#CCC1(n2cc(-c3c(F)cnc4[nH]ccc34)cn2)CN(C2CCN(C(=O)c3cnc(C(F)(F)F)cn3)CC2)C1 with human JAK1 (a.a. 837-1142) (Homo sapiens) and state it.
Reply | 5 to 20 nM

Ask | Lookup N#CCC1(n2cc(-c3ncnc4[nH]ccc34)cn2)CN(C2CCN(C(=O)c3cccc(Cl)c3)CC2)C1
Reply | ≤ 5 nM

* * *

target: human JAK1 (a.a. 837-1142); test: In vitro JAK kinase assay (HTRF, phosphorylation of a biotinylated peptide), JAK1; assay type: biochemical; conditions: ratio of JAK2 IC50 to JAK1 IC50, measured at 1 mM ATP
test_readout: IC50 Ratio JAK2/JAK1

[A] N#CCC1(n2cc(-c3ncnc4[nH]ccc34)cn2)CN(C2CCN(C(=O)c3cc(F)cc(Br)c3)CC2)C1
[B] COc1cc(C(=O)N2CCC(N3CC(CC#N)(n4cc(-c5ncnc6[nH]ccc56)cn4)C3)CC2)cc(Cl)n1
Ask | # argmax over IC50 Ratio JAK2/JAK1 for candidates A and B Identify your selection by its label.
Reply | A
(A: 7.2, B: 2.1)

[a] N#CCC1(n2cc(-c3ncnc4[nH]ccc34)cn2)CN(C2CCN(C(=O)c3ccc(F)c(Cl)c3)CC2)C1
[b] N#CCC1(n2cc(-c3c(F)cnc4[nH]ccc34)cn2)CN(C2CCN(C(=O)c3ccc(F)cn3)CC2)C1
Ask | Which has the smaller recorded IC50 Ratio JAK2/JAK1, a or b ? Identify your selection by its label.
Reply | b

* * *

target: human JAK1 (a.a. 837-1142); experiment: In vitro JAK kinase assay (HTRF, phosphorylation of a biotinylated peptide), JAK1; format: biochemical; settings: ratio of JAK2 IC50 to JAK1 IC50, measured at 1 mM ATP
test_readout: IC50 Ratio JAK2/JAK1

The examples below pair each entry with its known result.
compound: N#CCC1(n2cc(-c3ncnc4[nH]ccc34)cn2)CN(C2CCN(C(=O)Nc3cccc(C(F)(F)F)c3)CC2)C1
system_name: human JAK1 (a.a. 837-1142)
measured_number: 5.5

compound: CN(C)Cc1cc(C#N)cc(C(=O)N2CCC(N3CC(CC#N)(n4cc(-c5ncnc6[nH]ccc56)cn4)C3)CC2)c1
system_name: human JAK1 (a.a. 837-1142)
measured_number: 43.8

compound: N#CCC1(n2ccc(-c3ncnc4[nH]ccc34)c2)CN(C2CCN(C(=O)c3ccnc(C(F)(F)F)n3)CC2)C1
system_name: human JAK1 (a.a. 837-1142)
measured_number: 11.9

[I] N#CCC1(n2cc(-c3c(C#N)cnc4[nH]ccc34)cn2)CN(C2CCN(C(=O)c3c(F)cc(C#N)cc3F)CC2)C1
[II] N#CCC1(n2cc(-c3ncnc4[nH]ccc34)cn2)CN(C2CCN(C(=O)Nc3ccc(Cl)cc3)CC2)C1
Ask | Which has the smaller recorded IC50 Ratio JAK2/JAK1, I or II ? Identify your selection by its label.
Reply | I

[1] N#CCC1(n2cc(-c3ncnc4[nH]ccc34)cn2)CN(C2CCN(C(=O)C3CCC(F)(F)CC3)CC2)C1
[2] N#CCC1(n2ccc(-c3ncnc4[nH]ccc34)c2)CN(C2CCN(C(=O)c3cccc(C(F)(F)F)c3)CC2)C1
[3] Cc1cccc(Cl)c1NC(=O)N1CCC(N2CC(CC#N)(n3cc(-c4ncnc5[nH]ccc45)cn3)C2)CC1
Ask | Highest IC50 Ratio JAK2/JAK1 first, then in falling order down to the smallest. Answer by listing the labels in the requested order.
Reply | 3, 1, 2

[A] N#CCC1(n2cc(-c3ncnc4[nH]ccc34)cn2)CN(C2CCN(C(=O)c3ccc(-c4cccnc4)c(F)c3)CC2)C1
[B] N#CCC1(n2cc(-c3ncnc4[nH]ccc34)cn2)CN(C2CCN(C(=O)c3ccc(-c4ccccc4C#N)c(F)c3)CC2)C1
Ask | Which has the smaller recorded IC50 Ratio JAK2/JAK1, A or B ? Identify your selection by its label.
Reply | A
